experiment: Clearance in Beagle dog at 1 mg/kg, iv; assay type: ADME, organism-based, Canis lupus familiaris; parameters: dose 1 mg/kg, route intravenous; conditions: in vivo
clearance values, listed per item
value type: clearance

compound_string=COc1cc(Cl)cc(C(=O)Nc2ccc(Cl)cn2)c1NC(=O)c1scc(CN(C)CCO)c1Cl value_type=clearance result="27 mL/min/kg"
compound_string=CNc1nccn1Cc1csc(C(=O)Nc2c(OC)cc(Cl)cc2C(=O)Nc2ccc(Cl)cn2)c1Cl value_type=clearance result="4.4 mL/min/kg"
compound_string=COc1cc(Cl)cc(C(=O)Nc2ccc(Cl)cn2)c1NC(=O)c1scc(CN(C)C2=NCCO2)c1Cl value_type=clearance result="5.8 mL/min/kg"
compound_string=CNCc1csc(C(=O)Nc2c(OC)cc(Cl)cc2C(=O)Nc2ccc(Cl)cn2)c1Cl value_type=clearance result="1.6 mL/min/kg"
